- measurement_target: T1, human CD33 (human, UniProt P20138 18-259, limits assumed)
- T1 construct: Human CD33 immobilized on the BLI sensor tip or the BIAcore C1 chip; also called Siglec-3
- T1 sequence (P20138 18-259 limits assumed): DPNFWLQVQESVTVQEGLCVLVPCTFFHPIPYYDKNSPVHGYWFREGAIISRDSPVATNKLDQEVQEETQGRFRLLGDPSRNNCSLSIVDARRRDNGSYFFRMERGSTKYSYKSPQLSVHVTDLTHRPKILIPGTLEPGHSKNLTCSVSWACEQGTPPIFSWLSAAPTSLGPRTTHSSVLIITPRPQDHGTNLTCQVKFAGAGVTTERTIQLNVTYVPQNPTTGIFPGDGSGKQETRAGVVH
- measurement_description: SPR (BIAcore), Fab over CD33 on C1 chip
endpoint: koff (s⁻¹)

{"columns": ["binder", "readout_value"],
 "data": [
  ["AB-H1 (antibody, V domains shown, Humanized variant of murine 2F5.1) VH: QVQLVQSGAEVKKPGASVKVSCKASGYTFTDYNLHWVRQAPGQGLEWMGFIYPSNGITGYAQKFQGRVTMTRDTSTSTVYMELSSLRSEDTAVYYCARSTVDYFDYWGQGTLVTVSS VL: DIQMTQSPSSLSASVGDRVTITCRASQSVSTSTYSYMHWYQQKPGKAPKLLIYYASNLESGVPSRFSGSGSGTDFTLTISSLQPEDFATYYCQHSWEIPLTFGQGTKLEIK", 0.00186]
]}

These measurements were taken from patent US20210139581A1.
